Source listed as paper PMC3078936.

# assayed_target: DYNLL1 (Homo sapiens)
# Construct: 6xHis (N); made in house; host or cells: E. coli BL21(DE3)Star
# assay_procedure: Isothermal titration calorimetry of peptide/protein binding to DYNLL1
# measurement_context: ITC binding enthalpy, PBS + 3 mM 2-mercaptoethanol pH 7.4, 299 K
ΔH: recorded values
Write it as a number; the unit kcal/mol goes unstated.

Below, each entry is followed by its recorded ΔH result.
| substance | ΔH / kcal/mol |
| --- | --- |
| dimeric-GSGSRGTQTE [recombinant GCN4 leucine zipper-fused, dimerized Gly-5 in vitro evolved peptide] | -16.6 |
| dimeric-GSGDKSTQTD [recombinant GCN4 leucine zipper-fused, dimerized Gly-5 natural consensus peptide] | -18.2 |
| dimeric-GSVSRGTQTE [recombinant GCN4 leucine zipper-fused, dimerized in vitro evolved consensus peptide] | -15.5 |

Okay, now this substance:
Fill in: ΔH of dimeric-GSVDKSTQTD [recombinant GCN4 leucine zipper-fused, dimerized Val-5 natural consensus peptide] is ___
-21

###

# assayed_target: DYNLL1 (Homo sapiens)
# Construct: 6xHis (N); made in house; host or cells: E. coli BL21(DE3)Star
# assay_procedure: Isothermal titration calorimetry of peptide/protein binding to DYNLL1
# measurement_context: ITC entropy term, PBS + 3 mM 2-mercaptoethanol pH 7.4, 299 K
Overview of reported -TΔS across a group of substances:

A selection of reference data follows.
| substance | -TΔS |
| --- | --- |
| dimeric-GSVSRGTQTE [recombinant GCN4 leucine zipper-fused, dimerized in vitro evolved consensus peptide] | <4.21 kcal/mol |
| dimeric-GSGDKSTQTD [recombinant GCN4 leucine zipper-fused, dimerized Gly-5 natural consensus peptide] | <7.03 kcal/mol |
| dimeric-GSGSRGTQTE [recombinant GCN4 leucine zipper-fused, dimerized Gly-5 in vitro evolved peptide] | <4.92 kcal/mol |

What measured -TΔS is associated with dimeric-GSVDKSTQTD [recombinant GCN4 leucine zipper-fused, dimerized Val-5 natural consensus peptide] on DYNLL1 (Homo sapiens)?
<10 kcal/mol

###

# reported Kd; entries follow
# assayed_target: DYNLL1 (Homo sapiens, UniProt P63167)
# Construct: 6xHis (N); made in house; host or cells: E. coli BL21(DE3)Star
# Sequence (P63167 whole entry): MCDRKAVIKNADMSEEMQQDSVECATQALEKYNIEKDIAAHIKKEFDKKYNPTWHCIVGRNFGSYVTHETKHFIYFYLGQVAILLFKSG
# assay_procedure: Isothermal titration calorimetry of peptide/protein binding to DYNLL1
# measurement_context: ITC, 15 µM DYNLL1 in the cell, PBS + 3 mM 2-mercaptoethanol pH 7.4, 299 K, A + B to AB model; dimeric peptides reach the dynamic range limit of ITC

Quick check: Kd of dimeric-GSVDKSTQTD [recombinant GCN4 leucine zipper-fused, dimerized Val-5 natural consensus peptide] ?
< 9 nM

# query: Kd of entry dimeric-GSGDKSTQTD [recombinant GCN4 leucine zipper-fused, dimerized Gly-5 natural consensus peptide]
< 7 nM

I'd like to know its Kd. The substance in question is dimeric-GSGSRGTQTE [recombinant GCN4 leucine zipper-fused, dimerized Gly-5 in vitro evolved peptide]
< 3 nM

Any idea what its Kd is? The substance is dimeric-GSVSRGTQTE [recombinant GCN4 leucine zipper-fused, dimerized in vitro evolved consensus peptide]
< 7 nM
